Give measured Activity for each item. Keep answers brief.
Tested on: NCI/ADR-RES
Assay: Growth inhibition of human NCI/ADR-RES cells assessed tumor cell growth at 10^-5 M
Type: functional
Set-up: scale not given: the % may be the effect or the level left
Express it in %; write the number only.

Query: Returns the measured Activity for the input compound. Input: Cc1ccc(S(=O)(=O)n2cc(/C=C3\C(=O)N(c4c(Cl)cccc4Cl)c4ccccc43)c3ccccc32)cc1
Result: 88.2

Query: Fill in: Activity of Cc1ccc(S(=O)(=O)n2cc(/C=C3\C(=O)Nc4ccccc43)c3ccccc32)cc1 is ___
Result: 92.1

Query: Look up Activity for this compound: O=C1/C(=C\c2cn(Cc3ccccc3)c3ccccc23)c2ccccc2N1Cc1ccccc1
Result: 92

Query: # get_value(readout='Activity', item= C=CCn1cc(/C=C2\C(=O)N(c3cccc(Cl)c3)N=C2C)c2ccccc21 )
Result: 91.67

Query: Fill in: Activity of CC1=NN(c2cccc(Cl)c2)C(=O)/C1=C\c1cn(C(=O)c2c(Cl)cccc2Cl)c2ccccc12 is ___
Result: 90.21
